Biological target: Ubiquitin carboxyl-terminal hydrolase 17-like protein 5 (Homo sapiens)
Assay: ubiquitin-specific protease 17 DUB inhibitors, concentration-effect assay, cell-free, verification of initial screening actives (AID 1645864)
Conditions: purified USP17, ubiquitin-rhodamine cleavage fluorescence, 3 h
Calls of active or inactive are those of the source.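 The calls were made as follows: active = maximal inhibition of USP17 at or above 30% in the confirmation dose-response, a value not among the printed readouts; inactive = the rest.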
Respond only with the outcome that fits, drawn from class 1 for active, class 0 for inactive

Recorded results for 5 molecules are shown here.
> print(dat)
                                   molecule  qualitative.label
1  CC(C)(C)N=C1Nc2ncccc2NC12CCCN(C(=O)c1ccccc1)C2 (stereo not given)            class 0
2  COc1ccc(NC(=O)C2CCN(c3cncnc3N(C)C)CC2)cc1OC            class 0
3  O=C(COC(=O)c1n[nH]c2ccccc12)Nc1ccc(N2CCCCC2)cc1            class 1
4  Cc1ccc(NC2=NC(c3ccco3)n3c(nc(C)cc3=O)N2)c(C)c1 (stereo not given)            class 1
5  CN1C(=O)[C@@]23C[C@]4([C@@]56C[C@]78SS[C@](CO)(C(=O)N7[C@@H]5Nc5ccccc56)N(C)C8=O)c5ccccc5N[C@@H]4N2C(=O)[C@]1(CO)SS3            class 0

For "Cc1nc(SCC#N)c2oc3ccccc3c2n1" , what call appears in the results of this test?
class 1

Outcome? "COc1ccc2cc3c(nc2c1)OC(=O)N(CCc1cccc(F)c1)C3"
class 1

Hi, do you know how "COC(=O)c1cc2c(ccn2C)n1CC(=O)NC1CCCC1" came out in this test?
class 0

# lookup: test call for "O=C(Cc1ccccc1F)Nc1nc(-c2ccco2)c(-c2ccco2)s1"
class 0

How was "CN(C)c1ccc(/C=N/NC(=O)c2ccc(Cl)cc2)cc1" classified in this test?
class 1

----------
Biological target: UniProtKB A8MUK1
Assay: ubiquitin-specific protease 17 DUB inhibitors, concentration-effect assay, cell-free, verification of initial screening actives (AID 1645864)
Conditions: purified USP17, ubiquitin-rhodamine cleavage fluorescence, 3 h
Calls of active or inactive are those of the source.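 Rule for the calls: active = maximal inhibition of USP17 at or above 30% in the confirmation dose-response, a value not among the printed readouts; inactive = the rest.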
Write down one outcome, taken from T = active, F = inactive

Consider the following illustrative entries.
> print(dat)
                              smiles.record  qualitative.label
1  COC1=CC(=O)c2c(O)c(C)c(CC(C)=O)c(O)c2C1=O                  T
2  O=C(NCc1ccc(-c2nc3cnccc3o2)cc1)c1cc2ccccc2o1                  T
3  O=C(Cn1cnc2c(oc3ccccc32)c1=O)NCc1ccccc1Cl                  T
4  Cc1cc(/C=C2/C(=N)N3C(c4ccccc4)=CSC3=NC2=O)c(C)n1-c1ccc(F)cc1                  F

Continue with the compound presented below.
Entry "CSc1cccc(NC(=O)CCc2ccc3nc(NC(C)=O)sc3c2)c1" : call = ?
F

----------
Target: Ubiquitin carboxyl-terminal hydrolase 17-like protein 5 (Homo sapiens) (UniProt A8MUK1)
Sequence (A8MUK1 whole entry, looked up): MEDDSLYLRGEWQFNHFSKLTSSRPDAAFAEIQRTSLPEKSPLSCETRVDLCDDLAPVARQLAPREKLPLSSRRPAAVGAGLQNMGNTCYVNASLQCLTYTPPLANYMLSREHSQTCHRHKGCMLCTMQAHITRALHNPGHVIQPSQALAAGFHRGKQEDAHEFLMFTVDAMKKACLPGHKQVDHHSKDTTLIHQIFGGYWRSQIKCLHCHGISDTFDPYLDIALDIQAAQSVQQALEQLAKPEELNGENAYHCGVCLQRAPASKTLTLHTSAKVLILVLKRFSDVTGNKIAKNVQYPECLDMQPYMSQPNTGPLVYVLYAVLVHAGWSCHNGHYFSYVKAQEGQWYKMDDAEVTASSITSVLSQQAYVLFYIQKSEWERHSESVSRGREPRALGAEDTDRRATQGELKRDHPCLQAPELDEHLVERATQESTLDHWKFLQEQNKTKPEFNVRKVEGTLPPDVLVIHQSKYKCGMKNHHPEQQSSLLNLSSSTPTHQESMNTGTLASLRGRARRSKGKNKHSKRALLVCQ
Experiment: ubiquitin-specific protease 17 DUB inhibitors, concentration-effect assay, cell-free, verification of initial screening actives (AID 1645864)
Details: purified USP17, ubiquitin-rhodamine cleavage fluorescence, 3 h
The source made the active and inactive calls.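 The calls were made as follows: active = maximal inhibition of USP17 at or above 30% in the confirmation dose-response, a value not among the printed readouts; inactive = the rest.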
Hi! Could you answer with just one of these? active, inactive

> print(dat)
                                   compound  qualitative.label
1  COc1cccc(NC(=O)Cn2c(COc3ccccc3)nc3ccccc32)c1             active

Short answer needed: outcome of this test for "CCCN1C=NS(=O)(=O)c2cc(C(=O)Nc3ccc(OC)c(Cl)c3)ccc21" ?
active

Outcome logged for "COc1ccc(/C=C/C(=O)Nc2cccc(S(=O)(=O)Nc3ccccc3Cl)c2)c(OC)c1" in this assay:
active

Called result for "CCOC(=O)Nc1ccc(N2CCn3c(nc4ccccc43)C2)cc1OC"
inactive

What outcome does the record of this test show for "NS(=O)(=O)c1cccc(NS(=O)(=O)c2ccc(/C=C/C(=O)OCC(=O)c3ccc(Br)cc3)cc2)c1" ?
inactive

Can you look up the reported call for "COc1ccc(CCNC(=O)CCCCn2c(=O)c3ccccc3n(Cc3cccc(Cl)c3)c2=O)cc1OC" for me?
active

// param item: "O=C(NCCc1ccccc1)c1nnn(Cc2cccc(Cl)c2)c1-n1cccc1" ; yields the recorded call
inactive

How was "O=C(COc1cc([N+](=O)[O-])cc2cccnc12)NCCC1=CCCCC1" classified in this test?
active

Answer briefly: the call reported for "Cc1cc(C(=O)N2CCOCC2)c(C)n1-c1ccc(O)cc1" in this assay.
active

Test call for this compound, please: "COc1ccc(OC)c(-c2cn3ccn(-c4ccc5c(c4)CCC5)c(=O)c3n2)c1"
inactive

Dear all, I need the recorded test outcome for "CNC(=O)c1cc2c(=O)n3cccc(C)c3nc2n1Cc1ccccc1" , thank you.
active

Can you look up the reported call for "Cc1ccc2nc(CCc3ccc(NS(=O)(=O)c4cccc(Cl)c4C)cc3)[nH]c2c1" for me?
inactive

Dear all, I need the recorded test outcome for "O=C(NCCCN1CCc2ccccc2C1)c1cc2c(s1)CS(=O)(=O)C2" , thank you.
inactive

Would you mind telling me which call this test gave "CN1CCC(N(C)S(=O)(=O)c2ccc(NC(=O)c3cccc(OCc4ccccc4)c3)cc2)CC1" ?
inactive

Please let me know the test result on file for "CCCN1CCN(C(=O)c2cc(NC(=O)C3CCC3)cc3nc(C)ccc23)CC1" .
inactive

Hi, sorry to bother you, what did the test record for "Cc1sc2ncn3c(=O)n(CC(=O)Nc4ccc(F)c(Cl)c4)nc3c2c1C" ?
active

Which outcome was assigned to "Cc1nc(-c2noc(-c3ccncc3)n2)cn1CC(=O)N1CCN(c2ccc(F)cc2)CC1" in this test?
inactive

Hi, sorry to bother you, what did the test record for "O=C(Cn1c(=O)n(Cc2ccccc2)c(=O)c2ncccc21)NCc1ccccc1Cl" ?
active

Record request — test call for "COc1ccc(CCNC(=O)COc2ncnc3oc(C)c(C)c23)cc1OC"
inactive

Hi, do you know how "Cc1ccc(O)c(-c2cc(C(=O)Nc3ccccc3Cl)[nH]n2)c1" came out in this test?
active

Assay result, entry CN(C)c1ccc(C2CC(c3c(O)n(C)c(=O)[nH]c3=O)=Nc3ccccc3S2)cc1 (stereo not drawn) — outcome?
active

Which outcome was entered for the compound "CCn1cc(-c2nc(-c3ccccc3)no2)c(=O)c2cc(F)ccc21" in this test?
active

Fill in: this test's call for "COc1ccccc1-c1nc(Cn2nnc(C(=O)Nc3cc(C)cc(C)c3)c2N)c(C)o1" is ___
active

Dear all, I need the recorded test outcome for "CC(C)C(=O)Nc1ccc(N2CCN(Cc3ccc(F)cc3)C2=O)nc1" , thank you.
active

Please let me know the test result on file for "COc1cc(NC(=O)c2cc(-c3ccncc3)n(-c3ccc(F)cc3)n2)cc(OC)c1" .
inactive

Data origin: PubChem BioAssay AID1645864
